// values below are reported melting point

{"MOLECULE": "COc1c(C(C)=O)c(OC2SCC(O)C(O)C2O)c(OC)c2occc12 (stereo unspecified)", "melting point": "207 to 209 °C"}
{"MOLECULE": "C=CCN1C(=O)N(c2ccc([N+](=O)[O-])c(C(F)(F)F)c2)C(=O)C1(C)C", "melting point": "105 °C"}
{"MOLECULE": "CC1(C)CS(=O)(=O)CC(C)(C)N1CC#N", "melting point": "188 °C"}
{"MOLECULE": "O=C(O)Cc1nn(C(c2ccccn2)c2ncno2)c(=O)c2ccccc12 (stereo unspecified)", "melting point": "196 to 200 °C"}
{"MOLECULE": "C=Cc1c(C(=O)OC)nc(-c2ccc(Cl)cc2)c(F)c1N", "melting point": "81 to 83 °C"}

Consider now this further molecule.
Exercise: Quick one: melting point for CC1(C)CC2(CC(C)(C)N1)NC(=O)N(CC(O)COC(=O)CCCCC(=O)OCC(O)CN1C(=O)NC3(CC(C)(C)NC(C)(C)C3)C1=O)C2=O (stereo unspecified) ?
Solution: 132 to 134 °C

* * *

melting point overview
Provide only the numeric value, understood in °C.

{"COMPOUND": "CC12CCC(C1)C1(C)Oc3ccc(C(O)COc4ccc(C(=O)O)cc4)cc3C21C (stereo not given)", "melting point (°C)": 123}

// moving on: another record for melting point
Exercise: So what's the measured melting point for this one? COC(=O)N1CCC(Nc2nc3ccccc3n2Cc2ccc(F)cc2)C(C)C1 (stereo not given)
Solution: 172

* * *

OBSERVATION_TYPE: melting point

Exercise: May I ask what melting point has been recorded for "Nc1cc(-n2ccnc2)c(F)cc1[N+](=O)[O-]" ?
Solution: 122 to 123 °C

* * *

Entries and their melting point values follow.

Previously resolved entries follow.
{"MOLECULE": "CCCCCCCCCCCCCCCCCCNC(=O)Oc1ccc([N+](=O)[O-])cc1OC(=O)NCCCCCCCCCCCCCCCCCC", "OBSERVATION_TYPE": "melting point", "VALUE": "117 to 121 °C"}
{"MOLECULE": "CC(C)C[C@H](NC(=O)[C@H](Cc1cccc2ccccc12)NC(=O)OCc1ccccc1)C(=O)NN", "OBSERVATION_TYPE": "melting point", "VALUE": "200 to 204 °C"}
{"MOLECULE": "CCC12CCC3C4=C(CCC3C1CCC2O)CC(OC)=CC4 (stereo not given)", "OBSERVATION_TYPE": "melting point", "VALUE": "98 to 104 °C"}
{"MOLECULE": "COC(=O)C1NC(c2ccc(Cl)cc2)C/C(=N\\OS(C)(=O)=O)C1(Cl)Cl (stereo not given)", "OBSERVATION_TYPE": "melting point", "VALUE": "60 to 62 °C"}

Exercise: Given "O=S(=O)(c1ccccc1)N1CC2CCC(C1)O2" , state its recorded melting point.
Solution: 166 to 168 °C

Exercise: Please answer likewise for "COC(=O)C=Cc1ccc2c(ccn2S(=O)(=O)c2ccccc2)c1"
Solution: 134 to 136 °C

Exercise: Query "CCOc1ccccc1C=[N+]([O-])C1CCC1" next
Solution: 76 °C

Exercise: Try this molecule too: "Cn1c(CCCO)nc2cccnc21"
Solution: > 300 °C

Exercise: Request: "OCCNc1ccnc2cc(C(F)(F)F)ccc12"
Solution: 181 to 182 °C

Exercise: Continue with "O=c1[nH]c2ccccc2n1C1=CCN(C2CCC(c3ccc(F)cc3)(c3ccc(F)cc3)CC2)CC1"
Solution: 235 to 238 °C

Exercise: Field entry: "Clc1cc(OC[C@@H]2CCN2)cnc1Cl"
Solution: 59 to 60 °C

Exercise: Another molecule: CC1CC(C(=O)Nc2ccccc2)(C(=O)OC(C)(C)C)N(C(=O)CNC(=O)Nc2cccc(C(=O)O)c2)C1c1ccccc1 (stereo not given)
Solution: 238 °C

Exercise: What would you report for "C[C@@H](CN1CCc2ccc3c(c21)CCS3)NC(=O)OC(C)(C)C" ?
Solution: 170 to 172 °C

Exercise: And what about the molecule "CCOC(=O)c1cc2c(nc1CCl)CCCCC2" ?
Solution: 81 to 82 °C

Exercise: Subsequent entry: COC(=O)C(C)OC(=O)Cc1cc(Oc2ccc(C(F)(F)F)cc2Cl)ccc1[N+](=O)[O-] (stereo not given)
Solution: 72.1 to 72.9 °C

* * *

OBSERVATION_TYPE: melting point

Here is how some molecules turned out for melting point.
{"MOLECULE": "N#CCN1CCC(N2CCN(CCCN3CCCCC3)C2=C(C#N)C#N)CC1", "VALUE": "135 to 136 °C"}
{"MOLECULE": "O=C1CCCc2cc(OCc3ccccc3)ccc21", "VALUE": "95 to 97 °C"}
{"MOLECULE": "O=C(O)COCC(Cc1ccccc1)NC(=O)OCc1ccccc1 (configuration not stated)", "VALUE": "96 to 100 °C"}

Exercise: Suppose we examine the molecule "O=C(O)c1ccc2c(c1)OC(c1cccc(Cl)c1)(c1cccc(Cl)c1)O2" ; what melting point value has been reported?
Solution: 166 °C

* * *

OBSERVATION_TYPE: melting point

{"COMPOUND": "CCOC(=O)Cc1cc(C)c(C(=O)c2ccc(Cl)cc2)n1C", "VALUE": "101 to 104 °C"}
{"COMPOUND": "FC(F)(F)c1cccc(CSc2nnc(-c3ccc4[nH]ncc4c3)o2)c1", "VALUE": "159 to 160 °C"}
{"COMPOUND": "CCOC(=O)c1c(C(F)(F)F)nc(C(F)(F)F)c(C(=O)OC)c1Cl", "VALUE": "46 to 48 °C"}
{"COMPOUND": "COc1cc(CCCC2SC(=O)NC2=O)ccc1OCc1nc(-c2ccco2)oc1C (stereo not drawn)", "VALUE": "109 to 110 °C"}
{"COMPOUND": "Cc1cncc(CNC(=O)c2sc(N3CCN(CC(C)C)C3=O)nc2C)n1", "VALUE": "139 to 142 °C"}

Exercise: I have this compound here, "CCc1nn(C2CCCC2)c2c1CCn1c-2nnc1C(C)(C)C" , and I need its recorded melting point.
Solution: 150 to 151 °C

Exercise: Now consider "CCOC(=O)Cc1cn(Cc2ccccc2)nc1O" and answer again.
Solution: 156 to 157 °C

Exercise: // repeat for "CCc1cnc2c(C#N)cnn2c1-c1cccc(C(F)(F)F)c1" and report
Solution: 135 to 137 °C

* * *

Let's look at some compounds and their measured melting point.

{"COMPOUND": "Cn1c(=O)cnn(-c2cc(N)c(Cl)cc2F)c1=O", "OBSERVATION_TYPE": "melting point", "VALUE": "150 to 152 °C"}

Exercise: Which measured melting point value corresponds to "Cc1ccc(Sc2cncc3sc(C(=O)NC=NN)cc23)cc1" ?
Solution: 202 to 205 °C

Exercise: Input O=C(O)CN(CC(=O)O)CC(c1ccc([N+](=O)[O-])cc1)N(CC(=O)O)CC(=O)O (stereo not given)
Solution: 171 to 174 °C

Exercise: Another compound to look at: "Cc1oc(-c2ccccc2)nc1CCOc1ccc(CN(O)C(N)=O)cc1"
Solution: 148 to 150 °C

Exercise: Consider next the compound "CC(C)n1nc(-c2sc(NC(=O)c3cccc(C(F)(F)F)c3)nc2-c2ccccc2)ccc1=O" in the same way.
Solution: 237 to 238 °C

* * *

OBSERVATION_TYPE: melting point

A selection of reference data follows.
{"COMPOUND": "Nc1nc(N)c(-c2cccc(Cl)c2Cl)c(COc2ccccc2)n1", "melting point": "211 to 213 °C"}
{"COMPOUND": "Cc1ccc(CCCc2c(C)nc(N)nc2N)cc1", "melting point": "210 to 213 °C"}
{"COMPOUND": "CC(C)(C)NC(=O)[C@@H]1C[C@H](Cl)CN1C(=O)[C@@H](O)[C@H](Cc1ccccc1)NC(=O)[C@H](CC(N)=O)NC(=O)c1cnc2cc([N+](=O)[O-])ccc2n1", "melting point": "153 to 156 °C"}
{"COMPOUND": "CCCOC(C)c1cccc2[nH]c3cnc(C(=O)OCC)c(COC)c3c12 (configuration not stated)", "melting point": "127 to 130 °C"}
{"COMPOUND": "CC(C)OCC(COC(C)C)OCn1cnc2cnc(N)nc21", "melting point": "89 to 90 °C"}
{"COMPOUND": "O=C(c1ccc(F)cc1)C1CCN(C2CN(Cc3ccncc3)CCC2O)CC1 (configuration not stated)", "melting point": "182 °C"}
{"COMPOUND": "COCn1ccnc1C(O)(c1ccccc1)c1ccc(F)cc1 (configuration not stated)", "melting point": "150 °C"}
{"COMPOUND": "O=C(CCN1CCCC1)Nc1ccc2c(=O)c3ccc(NC(=O)CCN4CCCC4)cc3[nH]c2c1", "melting point": "> 320 °C"}
{"COMPOUND": "Cc1ccc(-c2cccc3ccccc23)n1CC[C@H]1C[C@H](O)CC(=O)O1 (relative stereo)", "melting point": "137 to 138 °C"}
{"COMPOUND": "COc1cc(C(O)c2c(O)c(=O)ccn2CCO)ccc1O (configuration not stated)", "melting point": "179 to 190 °C"}

Exercise: I would be grateful if you could share the reported melting point for "CSc1nc(NS(=O)(=O)c2ccc(C(C)(C)C)cc2)c(-c2ccc(C)cc2)c(OCCOCc2ccccc2)n1" .
Solution: 115 to 116 °C

Exercise: What do you have for "Nc1ccc(C(=O)N2CCCCc3sc(Cl)cc32)cc1" ?
Solution: 146 to 149 °C

Exercise: One more compound: "N#CCCSc1ccc(Cl)cc1"
Solution: 53 to 54 °C

Exercise: "COc1ccc(CNc2nc(SC)nc(OC)c2C(=O)O)cc1Cl" ?
Solution: 167 to 170 °C

Exercise: Query "O=C(Nc1ccccc1)Nc1ccnc(Br)c1" next
Solution: 188 to 189 °C

Exercise: Now consider "CN1CCC(C(=O)Nc2ccc(CN(C)C3CCOCC3)cc2)=Cc2cc(-c3ccc(OC(F)(F)F)cc3)ccc21" .
Solution: 182 to 183 °C
